molecular target: Proto-oncogene tyrosine-protein kinase Src (Mus musculus); assay: Inhibition of Src in mouse BV2 cells assessed as suppression of LPS-induced NO release preincubated for 1 hr followed by LPS addition measured after 24 hrs by Griess assay
Sequence (P05480 2-535 limits assumed): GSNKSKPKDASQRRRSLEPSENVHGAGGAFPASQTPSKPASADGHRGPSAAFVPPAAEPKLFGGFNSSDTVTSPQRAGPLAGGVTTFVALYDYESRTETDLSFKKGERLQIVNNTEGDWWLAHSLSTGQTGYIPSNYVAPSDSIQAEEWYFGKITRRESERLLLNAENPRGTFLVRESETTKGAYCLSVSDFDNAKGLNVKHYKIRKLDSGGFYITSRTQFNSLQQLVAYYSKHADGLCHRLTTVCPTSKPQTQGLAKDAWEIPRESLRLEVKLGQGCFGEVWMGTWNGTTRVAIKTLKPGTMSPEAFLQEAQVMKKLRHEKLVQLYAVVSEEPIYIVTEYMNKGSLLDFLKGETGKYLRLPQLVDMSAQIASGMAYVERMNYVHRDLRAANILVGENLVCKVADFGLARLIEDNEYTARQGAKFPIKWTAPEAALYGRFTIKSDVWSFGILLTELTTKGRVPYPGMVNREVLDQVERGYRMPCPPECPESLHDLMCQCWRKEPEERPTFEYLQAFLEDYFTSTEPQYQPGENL
Measure: IC50

>>> measured_result("COc1cc(O)cc(O)c1C(=O)CC(C)C")
"5.8 µM"
>>> measured_result("COc1ccc(C(=O)CC(C)C)c(OC[C@@H](O)CNC(C)(C)C)c1")
"53.8 µM"
>>> measured_result("CC(=O)c1c(O)cc(O)cc1O [2,4,6-TRIHYDROXYACETOPHENONE]")
"195 µM"
>>> measured_result("COc1cc(OC)c(C(=O)CC(C)C)c(OC[C@H](O)CNC(C)C)c1")
"41.3 µM"
>>> measured_result("O=C(CCCN1CCCCC1)c1c(O)cc(O)cc1O")
"182 µM"
>>> measured_result("COc1cc(OC)c(C(=O)CN2CCCCC2)c(OC)c1")
"24.9 µM"

The reported measurements were obtained from ChEMBL document CHEMBL3860061.
